- PROTOCOL SUMMARY: chemical genetic growth profiling, strain panel (AID 1159580);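 also: tested at 20 µM; growth read once vehicle control cultures reached saturation at 30 °C; lower values mean less growth of the strain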
- TEST SETTINGS: S. cerevisiae deletion strains, growth OD, locus YDL185W, strain tfp1, stronger effect = lower value
The campaign covered roughly 5,500 compounds. About 2,000 (36%) were called active. Another 18% or so got no clear call; they are omitted. The list shows a part of the results.
# note: boundary value 1 maps to False; normalized growth below it maps to True

{"COMPOUND": "O=c1cc(-c2cc(O)c(O)c(O)c2)oc2cc(O)cc(O)c12", "CLASS": "True"}
{"COMPOUND": "C[C@H](N)[C@H](O)c1cccc(O)c1", "CLASS": "True"}
{"COMPOUND": "COc1cc([C@H]2Oc3cc([C@H]4Oc5cc(O)cc(O)c5C(=O)[C@@H]4O)ccc3O[C@@H]2CO)ccc1O", "CLASS": "True"}
{"COMPOUND": "CCCC(CCC)C(=O)O", "CLASS": "True"}
{"COMPOUND": "CC1(C)C(O)CC(O)C2(C)C1CC(O)C1(C)C2CCC2(C)C(c3ccoc3)OC(=O)C3OC321 (stereo not drawn)", "CLASS": "False"}
{"COMPOUND": "CN(C)CCOC(=O)COc1ccc(Cl)cc1", "CLASS": "False"}
{"COMPOUND": "CC(C)CCCC(C)C1CCC2C3CC[C@H]4CCCC[C@]4(C)C3CC[C@]12C (stereo partly drawn)", "CLASS": "True"}
{"COMPOUND": "CCN(CC)C(C)CN1c2ccccc2Sc2ccccc21 (stereo not drawn)", "CLASS": "True"}
{"COMPOUND": "C[C@H](CCC(=O)O)[C@H]1CCC2C3C(CC[C@@]21C)[C@@]1(C)CC[C@@H](O)C[C@H]1C[C@H]3O (stereo partly drawn)", "CLASS": "False"}
{"COMPOUND": "OC1=Cc2c(O)cc(O)cc2OC1(O)c1ccc(O)c(O)c1 (stereo not drawn)", "CLASS": "True"}
{"COMPOUND": "CC(CCC(=O)O)[C@H]1CCC2C3CC[C@@H]4C[C@H](O)CC[C@]4(C)C3CC[C@@]21C (stereo partly drawn)", "CLASS": "False"}
{"COMPOUND": "NC(N)=NCCCC(NC(=O)C(N)Cc1ccc(O)cc1)C(=O)O (stereo not drawn)", "CLASS": "True"}
{"COMPOUND": "CN1CC(CNC(=O)OCc2ccccc2)CC2c3cccc4c3c(cn4C)CC21 (stereo not drawn)", "CLASS": "True"}
{"COMPOUND": "C[C@@H](N)[C@@H](O)c1ccccc1", "CLASS": "True"}
